The values you see were collected from patent US20260098026A1.

Target: M4 mAChR (Homo sapiens, UniProt P08173)
Construct: expressed in transfected cells; host or cells: CHO-K1
Sequence (P08173 whole entry): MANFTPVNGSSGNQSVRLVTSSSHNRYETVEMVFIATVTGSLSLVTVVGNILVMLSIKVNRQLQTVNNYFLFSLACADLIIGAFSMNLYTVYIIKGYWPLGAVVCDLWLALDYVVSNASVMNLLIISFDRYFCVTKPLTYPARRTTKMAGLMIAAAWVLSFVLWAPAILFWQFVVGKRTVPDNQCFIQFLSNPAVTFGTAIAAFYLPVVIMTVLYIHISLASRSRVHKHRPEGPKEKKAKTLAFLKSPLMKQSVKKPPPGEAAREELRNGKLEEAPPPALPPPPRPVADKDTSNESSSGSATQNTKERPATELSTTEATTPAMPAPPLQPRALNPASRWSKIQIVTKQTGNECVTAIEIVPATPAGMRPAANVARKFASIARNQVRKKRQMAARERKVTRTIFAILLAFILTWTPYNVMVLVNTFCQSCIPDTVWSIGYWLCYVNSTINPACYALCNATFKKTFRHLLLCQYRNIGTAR
Test: cAMP TR-FRET assay with forskolin, M4-overexpressing CHO-K1 cells
Type: cell-based
Details: cAMP assay
Source text: The M2 and M4 mACh receptors are Gi-coupled receptors which, upon activation, produce a decrease in cAMP. Assays were developed that measured the potency and efficacy of compounds at the M2 or M4 mAChR using M2- or M4-overexpressing CHO-K1 cell lines. […]
Property: Emax

Example cases with answers are listed next.
CCOC(=O)N1CC2(CC[C@@H](N3CCN(c4cc(F)cnc4-c4cnsc4)CC3)C2)C1; 80 to 100%
CCOC(=O)N1CC2(CC[C@@H](N3CCN(c4cc(F)cnc4-c4cnc(C)cn4)CC3)C2)C1; 50 to 79.9%
CCOC(=O)N1CC2(CC[C@@H](N3CCN(c4cc(F)cnc4-c4cnc(OC(C)C)nc4)CC3)C2)C1; 80 to 100%
CCOC(=O)N1CC2(CC[C@@H](N3CCN(c4cc(F)cnc4-c4c[nH]nc4C4CC4)CC3)C2)C1; 80 to 100%
CCOC(=O)N1CC2(CC[C@@H](N3CCN(c4cc(F)cnc4-c4ccc(C)nc4)CC3)C2)C1; 80 to 100%
CCOC(=O)N1CC2(CC[C@@H](N3CCN(c4cc(F)cnc4C4CC5(COC5)C4)CC3)C2)C1; 80 to 100%
CCOC(=O)N1CC2(CC[C@@H](N3CCN(c4cc(Cl)cnc4Br)CC3)C2)C1; 80 to 100%
CCOC(=O)N1CC2(CC[C@@H](N3CCN(c4cc(F)cnc4-n4cnnc4)CC3)C2)C1; 80 to 100%

Prompt: What measured Emax is associated with CCOC(=O)N1CC2(CC[C@@H](N3CCN(c4cc(F)cnc4C4CCC(F)(F)CC4)CC3)C2)C1 on M4 mAChR (Homo sapiens, UniProt P08173)?
Response: 80 to 100%

Prompt: Request body: readout Emax, system M4 mAChR (Homo sapiens, UniProt P08173), query CCOC(=O)N1CC2(CC[C@@H](N3CCN(c4cc(F)cnc4-c4cnn(CC(F)F)c4)CC3)C2)C1 . Return the value.
Response: 80 to 100%

* * *

Overview of recorded EC50 for various compounds
Molecular target: M3 muscarinic acetylcholine receptor (mAChR) (Homo sapiens, UniProt P20309)
Construct: expressed in transfected cells; host or cells: CHO-K1
Sequence (P20309 whole entry): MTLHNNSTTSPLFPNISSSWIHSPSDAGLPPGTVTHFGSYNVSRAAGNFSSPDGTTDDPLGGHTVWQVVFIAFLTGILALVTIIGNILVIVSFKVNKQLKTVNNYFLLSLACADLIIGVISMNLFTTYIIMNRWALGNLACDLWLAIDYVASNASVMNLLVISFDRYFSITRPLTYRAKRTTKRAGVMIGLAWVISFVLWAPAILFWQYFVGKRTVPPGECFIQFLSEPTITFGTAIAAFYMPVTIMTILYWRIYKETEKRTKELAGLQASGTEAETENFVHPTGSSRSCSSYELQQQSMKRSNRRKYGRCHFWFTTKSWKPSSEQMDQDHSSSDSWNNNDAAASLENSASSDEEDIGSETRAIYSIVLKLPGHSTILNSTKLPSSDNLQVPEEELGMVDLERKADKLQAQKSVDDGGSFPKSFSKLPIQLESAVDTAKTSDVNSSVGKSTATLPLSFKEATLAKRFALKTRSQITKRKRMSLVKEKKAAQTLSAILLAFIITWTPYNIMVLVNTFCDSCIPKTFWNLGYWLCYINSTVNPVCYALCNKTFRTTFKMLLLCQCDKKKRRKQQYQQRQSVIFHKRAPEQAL
Test: FLIPR calcium assay (Fluo 8), M3-overexpressing CHO-K1 cells
Format: cell-based
Conditions: FLIPR

Illustrative cases are given below, each with its answer.
CCOC(=O)N1CC2(CC[C@@H](N3CCN(c4cc(F)cnc4-c4cnc(C5CC5)nc4)CC3)C2)C1; > 10 µM
CCOC(=O)N1CC2(CC[C@@H](N3CCN(c4cc(F)cnc4-c4cc(C)c(=O)n(C)c4)CC3)C2)C1; > 10 µM
CCOC(=O)N1CC2(CC[C@@H](N3CCN(c4cc(Cl)cnc4-c4ccc(F)cn4)CC3)C2)C1; > 10 µM
CCOC(=O)N1CC2(CC[C@@H](N3CCN(c4cc(F)cnc4-c4ncccc4F)CC3)C2)C1; > 10 µM

Prompt: Write down the reported EC50 of CCOC(=O)N1CC2(CC[C@@H](N3CCN(c4cc(F)cnc4-c4cnn(CC(F)F)c4)CC3)C2)C1 , test system: M3 muscarinic acetylcholine receptor (mAChR) (Homo sapiens, UniProt P20309).
Response: > 10 µM

Prompt: Notebook: pull reported EC50 for M3 muscarinic acetylcholine receptor (mAChR) (Homo sapiens, UniProt P20309), entry CCOC(=O)N1CC2(CC[C@@H](N3CCN(c4cc(F)cnc4-c4cnc(C(F)F)cn4)CC3)C2)C1
Response: > 10 µM

Prompt: Return EC50 measured with M3 muscarinic acetylcholine receptor (mAChR) (Homo sapiens, UniProt P20309) given this compound: CCOC(=O)N1CC2(CCC(N3CCN(c4cccnc4N4CCC(C#N)CC4)CC3)C2)C1 (stereo not shown)
Response: > 10 µM
